Listing of recorded pIC50 by entry.
- experimental.target: JAK3 (Homo sapiens)
- Sequence (P52333 whole entry): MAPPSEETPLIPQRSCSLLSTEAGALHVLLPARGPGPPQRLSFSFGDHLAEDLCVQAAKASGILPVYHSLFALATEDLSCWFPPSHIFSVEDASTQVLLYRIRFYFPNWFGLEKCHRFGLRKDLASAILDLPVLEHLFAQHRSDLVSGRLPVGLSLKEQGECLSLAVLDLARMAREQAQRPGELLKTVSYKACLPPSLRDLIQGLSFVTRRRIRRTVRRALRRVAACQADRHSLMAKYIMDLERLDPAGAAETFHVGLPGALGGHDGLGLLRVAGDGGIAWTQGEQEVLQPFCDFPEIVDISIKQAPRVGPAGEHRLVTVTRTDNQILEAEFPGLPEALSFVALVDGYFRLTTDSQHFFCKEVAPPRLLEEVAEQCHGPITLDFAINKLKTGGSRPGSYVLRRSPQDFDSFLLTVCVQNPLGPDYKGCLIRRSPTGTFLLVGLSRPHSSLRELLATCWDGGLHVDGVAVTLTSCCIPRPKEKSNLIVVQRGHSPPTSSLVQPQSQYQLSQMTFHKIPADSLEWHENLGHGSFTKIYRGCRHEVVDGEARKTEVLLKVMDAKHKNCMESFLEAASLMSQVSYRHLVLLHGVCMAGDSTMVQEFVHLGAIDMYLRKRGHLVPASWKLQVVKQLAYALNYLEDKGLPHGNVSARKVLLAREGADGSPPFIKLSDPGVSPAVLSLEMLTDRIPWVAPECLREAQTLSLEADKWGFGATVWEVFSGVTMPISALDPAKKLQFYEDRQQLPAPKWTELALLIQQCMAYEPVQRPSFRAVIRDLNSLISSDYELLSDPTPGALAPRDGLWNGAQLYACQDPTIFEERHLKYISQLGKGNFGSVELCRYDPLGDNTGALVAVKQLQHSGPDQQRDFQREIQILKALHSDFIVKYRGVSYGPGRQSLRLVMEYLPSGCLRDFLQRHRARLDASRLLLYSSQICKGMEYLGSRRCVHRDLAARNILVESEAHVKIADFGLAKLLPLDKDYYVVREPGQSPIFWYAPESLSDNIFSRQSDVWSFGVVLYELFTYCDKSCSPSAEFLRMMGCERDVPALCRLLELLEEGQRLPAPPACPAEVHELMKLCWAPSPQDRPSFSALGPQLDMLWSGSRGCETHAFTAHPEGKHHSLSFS
- assay.info: Inhibition of a panel of kinases, in vitro HotSpot kinase assay: JAK3
- Assay type: biochemical
- recorded.conditions: Table 13, A compounds; 1 μM ATP; read-out: IC50 JAK3
pIC50: −log10 of the molar value.

Some compounds with known pIC50 results, for comparison:
- CN1CCN(c2ccc(Nc3nc(N4CCC[C@@H](n5ccc6cc(C7CC7)cc(F)c6c5=O)C4)cnc3C(N)=O)cc2)CC1: 6.00 to 7.00
- Cc1nn(C)cc1Nc1nc(N2CCC[C@@H](NC(=O)c3ccc(C4CC4)cc3)[C@H]2C)cnc1C(N)=O: < 5.00

INPUT: Note pIC50 for the compound shown: `C[C@@H]1[C@H](NC(=O)c2ccc(C3CC3)cc2)CCCN1c1cnc(C(N)=O)c(Nc2cc(CN3CCCCC3)ns2)n1`
OUTPUT: 6.00 to 7.00

INPUT: Note pIC50 for the compound shown: `C[C@@H]1[C@H](NC(=O)c2ccc(C3CC3)cn2)CCCN1c1cnc(C(N)=O)c(Nc2ccc(N3CCN(C)CC3)cc2)n1`
OUTPUT: 5.00 to 6.00
